System: SK-MEL-5
Test Details: NCI tumour cell line growth inhibition, 48 h
Activity calls are given as the source filed them. Cut-off read from the data, not from the text of the source: active = GI50 up to about 1.1 µM and inactive = higher.
Can you answer with just one of these options? active, inactive

A selection of reference data follows.
COc1ccc(Nc2nc3ccccc3nc2C(=O)O)cc1    inactive
COC(=O)C1=C(O)c2cc3c(cc2[C@H](c2cc(OC)c(OC)c(OC)c2)C1)OCO3    inactive
CN1C(=O)C(=CN(C)c2ccccc2)C(=O)N(C)C1=O    inactive
CN1c2ccccc2N(C(=O)c2ccc([N+](=O)[O-])cc2)C(CC(=O)O)c2cccn21 (stereo not given)    inactive
CSCC[C@H]1C(=O)N=C(N)N1C(=O)OCc1ccccc1    inactive
OC(C/C=N/N=C/CC(O)(C(F)(F)Cl)C(F)(F)Cl)(C(F)(F)Cl)C(F)(F)Cl    inactive

I would be grateful if you could indicate the recorded call for CC1=NN(C(=O)c2ccccc2O)C(=O)/C1=C/c1ccc(O)cc1 .
active

Please do the same for Oc1c(C2=NNC(c3ccc(Cl)cc3Cl)C2)ccc2ccccc12 (stereo not given) as well.
inactive

Please do the same for CCOc1cc(C=O)ccc1O as well.
inactive

Please do the same for O=C1NC(=O)C(c2c[nH]c3ccccc23)=C1c1cnc[nH]1 as well.
inactive

###

System: COLO 205
Test Details: NCI tumour cell line growth inhibition, 48 h
Calls of active or inactive are those of the source. No stated cut-off is given here; in the data, active = GI50 up to about 1.1 µM and inactive = higher.
Endpoint Name: GI50

Here are 3 compounds together with their reported answers.
FC(F)(F)c1ccc2c(c1)nc(Cc1ccc(Cl)c(Cl)c1)n2CC1CCCN2CCCCC12 (stereo not drawn)    16.1 µM (inactive)
Cn1nc(-c2ccccc2)c(C(=O)/C=C/c2ccc(Cl)cc2)c(N2CCCCC2)c1=O    2.23 µM (inactive)
COc1ccc(-n2c(-c3ccccc3)cc(-c3cccs3)c2-c2cccs2)cc1    > 100 µM (inactive)

Any idea what GI50 came out for COC(=O)C1C(O)C(C)C(O)C(C)/C=C\C=C(C)C(=O)Nc2c(C)c(OC(C)=O)c3c(c2O)C(=O)C(C)=C2OCOC(=C23)C(C)=CC(C)(O)C(O)C(C)C1O (stereo not drawn) on COLO 205?
20.4 µM (inactive)

Please do the same for Nc1ccn(C2CC3OCC3O2)c(=O)n1 (stereo not drawn) as well.
> 100 µM (inactive)

Please do the same for C=CCN(C(=O)OC(C)(C)C)C1=CC2C(C)=CN(S(=O)(=O)c3ccccc3)C2C(OCc2ccccc2)=C1 (stereo not drawn) as well.
> 100 µM (inactive)

Please do the same for O=c1oc2c(ccc3c(O)cccc32)c2c1CCCC2 as well.
> 100 µM (inactive)

Please do the same for Nc1cc(O)c2cc(/N=N/c3ccc(/N=N/c4ccc(/N=N/c5ccc6cc(S(=O)(=O)O)cc(S(=O)(=O)O)c6c5)c5ccccc45)c4cc(S(=O)(=O)O)ccc34)c(S(=O)(=O)O)cc2c1 as well.
> 100 µM (inactive)

###

Tested on: RXF 393
Test Details: NCI tumour cell line growth inhibition, 48 h
Calls of active or inactive are those of the source. Cut-off read from the data, not from the text of the source: active = GI50 up to about 1.1 µM and inactive = higher.
Documented GI50 across a set of compounds

Entry O=c1[nH]c2nc(S)nc(S)c2[nH]1 has what GI50?
> 100 µM (inactive)

Please do the same for COc1cc(-c2nc3cc(F)ccc3s2)ccc1O as well.
> 100 µM (inactive)

Please do the same for O=C(NP(=O)(N1CC1)N1CC1)c1cc(I)ccc1I [DIIODBENZOTEPH] as well.
34.6 µM (inactive)

Please do the same for COc1ccc2cc(C(C)C(=O)N3CCOC3=O)ccc2c1 (configuration not stated) as well.
> 100 µM (inactive)

Please do the same for C\C=C/C=C/C=C/C(=O)O as well.
> 100 µM (inactive)

Please do the same for CC1CCCC(C(O)CC2CC(=O)N(c3ccccc3)C(=O)C2)C1=O (configuration not stated) as well.
> 100 µM (inactive)

Please do the same for CSCC[C@H]1C(=O)N=C(N)N1C(=O)OCc1ccccc1 as well.
17.3 µM (inactive)

Please do the same for O=C(O)c1ccccc1CC1Cc2ccc3c(c2C1=O)CCC3 (configuration not stated) as well.
> 100 µM (inactive)

Please do the same for COc1ccc(Nc2nc3ccccc3nc2C(=O)O)cc1 as well.
> 100 µM (inactive)

Please do the same for N=C(N)SCc1nc(-c2ccc(Cl)cc2)no1 as well.
12.1 µM (inactive)

Please do the same for C/C(=N\NC(=O)N/N=C(\C)c1ccccn1)c1ccccn1 as well.
28.1 µM (inactive)

Please do the same for COC(=O)[C@]1(C)CCCn2c(=O)n(-c3ccccc3)c(=O)n21 as well.
> 100 µM (inactive)
